// data source = PubChem BioAssay (NCI)

test: NCI Yeast Anticancer Drug Screen. Data for the sgs1 mgt1 strain (AID 161);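 also: 0% = growth of cultures given vehicle only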; settings: S. cerevisiae sgs1 mgt1 strain, at 50.0 µM
About 79,000 compounds went through this panel and 15% of them were active in at least one assay; those are over-represented in the sample as a whole. Activity calls are given as the source filed them. Rule as the data show it: active = growth inhibition above about 70%; inactive = the rest.
Permitted responses: yes (1) = active, no (0) = inactive

Record excerpt, results attached:
>>> assigned_category("CCCCCCCCCCCCCCCCCC[S+](C)CC (centres undefined)")
"yes (1)"
>>> assigned_category("O=C1/C(=C/c2ccccc2)CCC/C1=C\\c1ccccc1")
"yes (1)"
>>> assigned_category("N#C/C(=N\\Nc1ccc(Cl)cc1)C(=O)C1CC1")
"yes (1)"

[Q] Dear colleague, could you share the recorded outcome for `Oc1ccc2ccccc2c1N=Nc1ccccn1` when you have a moment?
[A] yes (1)

[Q] Dear colleague, could you share the recorded outcome for CCOc1ccc(C(C[N+](=O)[O-])Sc2ccccc2N)cc1 (centres undefined) when you have a moment?
[A] yes (1)

[Q] Dear colleague, could you share the recorded outcome for `N=C1C(=N)c2ccccc2-c2ccccc21` when you have a moment?
[A] yes (1)

[Q] Dear colleague, could you share the recorded outcome for `C[C@@]1(CO)[C@H](O)CC[C@@]2(C)[C@H]1CC[C@H]1C[C@@H]3C[C@@]12CC[C@@]3(O)COC(=O)CN` when you have a moment?
[A] no (0)

[Q] Dear colleague, could you share the recorded outcome for `CC(C)(C)c1ccc(O)c(-c2ccccc2)c1` when you have a moment?
[A] yes (1)

[Q] Dear colleague, could you share the recorded outcome for `CC(C)c1ccc(Nc2n[nH]c(=S)s2)cc1` when you have a moment?
[A] yes (1)

[Q] Dear colleague, could you share the recorded outcome for `O=C1C=CC(O)=CC1=P(c1ccccc1)(c1ccccc1)c1ccccc1` when you have a moment?
[A] no (0)

[Q] Dear colleague, could you share the recorded outcome for `Cc1cccc2c(N)c3ccccc3nc12` when you have a moment?
[A] yes (1)

[Q] Dear colleague, could you share the recorded outcome for `CC(C)N=C(N)/N=C(\N)Nc1ccc2ccc3ccccc3c2c1` when you have a moment?
[A] yes (1)

[Q] Dear colleague, could you share the recorded outcome for `O=C(Nc1cccc(C(F)(F)F)c1)Oc1ccc(Cl)c2cccnc12` when you have a moment?
[A] yes (1)

[Q] Dear colleague, could you share the recorded outcome for OC(c1cc(-c2ccc(C(F)(F)F)cc2)nc(C(F)(F)F)c1)C1CCCCN1 (centres undefined) when you have a moment?
[A] no (0)

[Q] Dear colleague, could you share the recorded outcome for `Cc1ccc(N2C(=O)C=CC2=O)cc1` when you have a moment?
[A] yes (1)

[Q] Dear colleague, could you share the recorded outcome for Cc1cc(O)c2c(c1)C(=O)C(c1c(C)cc3c(c1O)C(=O)C1OC1C3=O)=CC2=O (centres undefined) when you have a moment?
[A] yes (1)

[Q] Dear colleague, could you share the recorded outcome for `Cc1nc([N+](=O)[O-])c(Sc2nncc(-c3ccccc3)n2)n1C` when you have a moment?
[A] yes (1)

[Q] Dear colleague, could you share the recorded outcome for CC(C)=CCCC(C)C1=C(O)C(=O)C(C)=CC1=O (centres undefined) when you have a moment?
[A] yes (1)

[Q] Dear colleague, could you share the recorded outcome for `O=Nc1ccc2ccccc2c1O` when you have a moment?
[A] yes (1)

[Q] Dear colleague, could you share the recorded outcome for `O=[N+]([O-])c1ccc(N2CCN(Cc3ccccc3)CC2)c2c1no[n+]2[O-]` when you have a moment?
[A] yes (1)

[Q] Dear colleague, could you share the recorded outcome for C=C(C)C1CC2(C)C(C)CC(O)CC2C(OC(=O)C=C(C)C)C1O (centres undefined) when you have a moment?
[A] yes (1)

[Q] Dear colleague, could you share the recorded outcome for CCN(CC)CCNC(Cc1ccccc1)c1ccc(OCc2ccccc2)cc1 (centres undefined) when you have a moment?
[A] yes (1)

[Q] Dear colleague, could you share the recorded outcome for `COc1cc(/C=C/c2ccnc3ccccc23)cc(OC)c1OC` when you have a moment?
[A] yes (1)

[Q] Dear colleague, could you share the recorded outcome for c1ccc(C2NCCNC2c2ccccc2)cc1 (centres undefined) when you have a moment?
[A] no (0)
